Tested on: L. monocytogenes F4244
EXPERIMENTAL DETAILS: Concentration-dependent bacterial log reduction in pure culture
Type: cell-based, Listeria monocytogenes
DETAILS: 4 µM PNA, relative to control, pure culture F4244
MEASURE NAME: Log CFU reduction (Log CFU)

• RQIKIWFQNRRMKWKK-O-cgatcattcaaa-NH2 [PANT, anti-rpoA PNA covalently conjugated to the antennapedia CPP] = 0.25
• RFRRFRRFRRFRXB-O-cgatcattcaaa-NH2 [PRFR, anti-rpoA PNA covalently conjugated to the (RFR)4XB CPP] = 3.29
• GRKKKRRQRRRYK-O-cgatcattcaaa-NH2 [PTAT, anti-rpoA PNA covalently conjugated to the TAT CPP] = 9.39
• KFFKFFKFFK-O-cgatcattcaaa-NH2 [PKFF, anti-rpoA PNA covalently conjugated to the (KFF)3K CPP] = 0.129
• RXRRXRRXRRXRXB-O-cgatcattcaaa-NH2 [PRXR, anti-rpoA PNA covalently conjugated to the (RXR)4XB CPP] = 9.39
